- measured on: recombinant full-length WRN protein (1-1432) (Homo sapiens)
- Construct: recombinant full-length WRN protein (1-1432)
- test description: WRN unwinding activity, fluorogenic 384-well assay (Example A)
- Type: biochemical
- applied conditions: WRN unwinding activity, 4 hr; Table 2; read-out: 4 hr UNW pIC50 (converted)
test readout: IC50 (nM)

# count of solved cases: 2
molecule	unit	IC50
CCO[C@@H]1C[C@H](c2ccc(N(C)S(=O)(=O)c3ccc4c(c3)nc(CO)n4C)cc2)[C@@H](C(=O)O)[C@H](C(=O)Nc2ccc(C(F)(F)F)cc2F)C1 [Example 373]	nM	1.58
O=C(O)[C@@H]1[C@@H](c2ccc(N3CCC4(CC3)CO4)cc2)CCC[C@H]1C(=O)Nc1ccc(C(F)(F)F)cc1F (racemic) [Example 228]	nM	6310

(a) N#Cc1cscc1-c1ccc([C@H]2CCC[C@@H](C(=O)Nc3ccc(C(F)(F)F)cc3F)[C@@H]2C(=O)O)cc1 [Example 32]
(b) Cc1nc2cc(S(=O)(=O)N(C)c3ccc([C@H]4CCC[C@@H](C(=O)Nc5ccc(C(F)(F)F)cc5F)[C@@H]4C(=O)O)cc3)ccc2[nH]1 (single isomer, unassigned) [Example 92]
(c) Cc1nc2cc(S(=O)(=O)N(C)c3ccc([C@H]4CCC[C@@H](C(=O)Nc5ccc(C(F)(F)F)cn5)[C@@H]4C(=O)O)cc3)ccc2n1C (single isomer, unassigned) [Example 169]
(d) Cc1nc2cc(S(=O)(=O)N(C)c3ccc([C@H]4CCC[C@@H](C(=O)N[C@H]5CC[C@H](C(C)(C)F)CC5)[C@@H]4C(=O)O)cc3)ccc2n1C [Example 182]
Request: Arrange these molecules by their IC50, starting with the largest number. # answer = labels listed in requested order
Response: c, a, d, b

* * *

- measured on: recombinant full-length WRN protein (1-1432) (Homo sapiens, UniProt Q14191)
- Construct: recombinant full-length WRN protein (1-1432)
- Sequence (Q14191 whole entry): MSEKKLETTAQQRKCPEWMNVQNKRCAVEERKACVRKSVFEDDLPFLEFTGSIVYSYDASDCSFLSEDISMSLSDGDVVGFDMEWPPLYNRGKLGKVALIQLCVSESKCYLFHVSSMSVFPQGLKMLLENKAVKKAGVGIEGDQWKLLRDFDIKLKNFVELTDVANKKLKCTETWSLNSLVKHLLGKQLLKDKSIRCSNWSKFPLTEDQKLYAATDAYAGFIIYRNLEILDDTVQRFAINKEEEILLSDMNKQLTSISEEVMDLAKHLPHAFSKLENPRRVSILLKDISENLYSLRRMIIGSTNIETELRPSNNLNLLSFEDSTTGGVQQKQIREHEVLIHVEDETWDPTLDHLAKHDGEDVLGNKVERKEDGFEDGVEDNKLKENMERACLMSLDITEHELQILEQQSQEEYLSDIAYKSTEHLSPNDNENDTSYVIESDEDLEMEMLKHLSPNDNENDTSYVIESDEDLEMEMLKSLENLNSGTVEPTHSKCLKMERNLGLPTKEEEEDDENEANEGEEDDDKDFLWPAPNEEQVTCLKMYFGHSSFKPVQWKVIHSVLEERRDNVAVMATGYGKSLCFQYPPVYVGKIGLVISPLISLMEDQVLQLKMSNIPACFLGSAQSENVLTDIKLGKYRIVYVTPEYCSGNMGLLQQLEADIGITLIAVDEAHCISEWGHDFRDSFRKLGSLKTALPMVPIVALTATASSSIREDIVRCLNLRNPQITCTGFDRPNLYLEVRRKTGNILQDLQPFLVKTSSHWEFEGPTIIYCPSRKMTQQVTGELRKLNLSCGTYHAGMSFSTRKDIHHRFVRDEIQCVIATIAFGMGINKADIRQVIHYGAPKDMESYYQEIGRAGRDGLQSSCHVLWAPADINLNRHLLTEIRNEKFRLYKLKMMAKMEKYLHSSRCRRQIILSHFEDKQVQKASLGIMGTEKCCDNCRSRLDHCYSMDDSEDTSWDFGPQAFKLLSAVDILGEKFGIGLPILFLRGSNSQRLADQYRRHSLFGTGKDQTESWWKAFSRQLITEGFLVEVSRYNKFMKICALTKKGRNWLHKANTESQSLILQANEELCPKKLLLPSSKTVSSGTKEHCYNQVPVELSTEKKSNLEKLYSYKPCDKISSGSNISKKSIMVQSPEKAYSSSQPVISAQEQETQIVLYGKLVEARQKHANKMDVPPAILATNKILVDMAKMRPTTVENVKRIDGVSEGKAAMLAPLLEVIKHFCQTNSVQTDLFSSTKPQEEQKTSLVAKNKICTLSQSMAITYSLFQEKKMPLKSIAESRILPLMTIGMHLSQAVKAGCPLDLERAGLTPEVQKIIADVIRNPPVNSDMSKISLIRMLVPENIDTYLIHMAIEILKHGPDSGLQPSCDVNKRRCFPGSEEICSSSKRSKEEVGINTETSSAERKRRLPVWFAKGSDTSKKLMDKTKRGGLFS
- test description: WRN unwinding activity, fluorogenic 384-well assay (Example A)
- Type: biochemical
- applied conditions: WRN unwinding activity, 4 hr; Table 2; read-out: 4 hr UNW pIC50 (converted)
Structures can show the parent of a compound that is named as a salt.
test readout: IC50 (nM)

molecule	IC50 [nM]
Cc1nc2cc(S(=O)(=O)N(C)c3ccc([C@H]4CCC[C@@H](C(=O)Nc5ccc(C(F)(F)F)cc5F)[C@@H]4C(=O)O)cc3)ccc2n1C (single isomer, unassigned) [Example 84]	158
CN(c1ccc([C@H]2CCC[C@@H](C(=O)Nc3ccc(C(F)(F)F)cc3F)[C@@H]2C(=O)O)cc1)S(=O)(=O)c1cccc(-c2nnco2)c1	1.58
CCO[C@@H]1C[C@H](c2ccc(N(C)S(=O)(=O)c3ccc4c(c3)nc(C)n4C)cc2)[C@@H](C(=O)O)[C@H](C(=O)Nc2ccc(C(F)(F)F)cn2)C1 (single isomer, unassigned)	2.51
Cc1nc2cc(S(=O)(=O)N(C)c3ccc([C@H]4C[C@@H](N5CCC[C@@H](F)C5)C[C@@H](C(=O)Nc5ccc(C(F)(F)F)cc5F)[C@@H]4C(=O)O)cc3)ccc2n1C (single isomer, unassigned) [Example 347]	10
Cc1nc2cc(S(=O)(=O)N(C)c3ccc([C@H]4C[C@@H](O[C@H]5CCOC5)C[C@@H](C(=O)Nc5ccc(C(F)(F)F)cc5F)[C@@H]4C(=O)O)cc3)ccc2n1C (stereo in doubt)	1.58
Cc1nc2cc(S(=O)(=O)N(C)c3ccc([C@@H]4CCC[C@H](COc5ccc(C(F)(F)F)cc5)[C@H]4C(=O)O)cc3)cc([C@@H]3CCCNC3)c2n1C (relative stereo) [Example 207, hydrochloride]	1.58

(A) Cc1nc2cc(S(=O)(=O)Nc3ccc([C@H]4CCC[C@@H](C(=O)Nc5ccc(C(F)(F)F)cc5F)[C@@H]4C(=O)O)cc3)ccc2[nH]1 (relative stereo)
(B) O=C(O)[C@@H]1[C@@H](c2ccc(-c3ccc4nncn4n3)cc2)CCC[C@H]1C(=O)Nc1ccc(C(F)(F)F)cc1F
(C) CN(c1ccc([C@H]2CCC[C@@H](C(=O)Nc3ccc(C(F)(F)F)cc3F)[C@@H]2C(=O)O)cc1)S(=O)(=O)c1cc(I)c2occc2c1 [Example 117]
(D) Cc1nc2cc(S(=O)(=O)N(C)c3ccc([C@H]4COC[C@@H](C(=O)Nc5ccc(C(F)(F)F)cc5F)[C@@H]4C(=O)O)cc3)ccc2n1C (racemic)
Request: Arrange these molecules by their IC50, starting with the largest number. # answer = labels listed in requested order
Response: B, A, C, D
(B: 6310 nM, A: 631 nM, C: 63.1 nM, D: 1.58 nM)

(P) Cc1nc2cc(S(=O)(=O)N(C)c3ccc([C@H]4C[C@@H](O)C[C@@H](C(=O)Nc5ccc(C(F)(F)F)cc5F)[C@H]4C(=O)O)cc3)ccc2n1C (single isomer, unassigned) [Example 142]
(Q) Cc1nc2cc(S(=O)(=O)N(C)c3ccc([C@H]4C[C@@H](OC[C@@H]5COCCO5)C[C@@H](C(=O)Nc5ccc(C(F)(F)F)cc5F)[C@@H]4C(=O)O)cc3)ccc2n1C (stereo in doubt)
(R) C=CS(=O)(=O)N(C)c1ccc([C@H]2CCC[C@@H](C(=O)Nc3ccc(C(F)(F)F)cc3F)[C@@H]2C(=O)O)cc1
(S) Cc1nc2cc(S(=O)(=O)N(C)c3ccc([C@H]4CCC[C@@H](C(=O)Nc5ccc(C(C)C)cc5)[C@H]4C(=O)O)cc3)ccc2n1C (racemic) [Example 75]
Request: Arrange these molecules by their IC50, starting with the largest number. # answer = labels listed in requested order
Response: P, S, R, Q
(P: 2000 nM, S: 6.31 nM, R: 2.51 nM, Q: 1.58 nM)

(P) Cc1nc2cc(S(=O)(=O)N(C)c3ccc([C@@H]4C[C@@H](NCC(F)(F)F)C[C@H](C(=O)Nc5ccc(C(F)(F)F)cc5F)[C@H]4C(=O)O)cc3)ccc2n1C (stereo in doubt)
(Q) Cc1nc2cc(S(=O)(=O)N(C)c3ccc([C@H]4CCC[C@@H](C(=O)Nc5ccc(C(F)(F)F)cc5F)[C@@H]4C(=O)O)cc3)cc(CCN(C)C)c2n1C
Request: So which one has the bigger IC50 here, P or Q ? Please indicate the selected item by its label.
Response: P
(P: 2510 nM, Q: 1.58 nM)

(P) O=C(O)[C@@H]1[C@@H](c2ccc(-c3ccnc4ccsc34)cc2)CCC[C@H]1C(=O)Nc1ccc(C(F)(F)F)cc1F
(Q) CN(c1ccc([C@H]2CCC[C@@H](C(=O)Nc3ccc(C(F)(F)F)cc3F)[C@@H]2C(=O)O)cc1)S(=O)(=O)c1ccc(S(N)(=O)=O)cc1
Request: Lab note: check whether P or Q has the lower measured IC50. Please indicate the selected item by its label.
Response: Q
(Q: 3.98 nM, P: 6310 nM)

(P) Cc1nc2cc(S(=O)(=O)N(C)c3ccc([C@H]4CCC[C@@H](C(=O)Nc5ccc(C(F)(F)F)cc5F)[C@@H]4C(=O)O)cc3)ncc2n1C
(Q) Cc1nc2cc(S(=O)(=O)Nc3ccc([C@@H]4CCC[C@H](C(=O)Nc5ccc(C(F)(F)F)cc5F)[C@H]4C(=O)O)cc3)ccc2n1C (single isomer, unassigned)
Request: So which one has the bigger IC50 here, P or Q ? Please indicate the selected item by its label.
Response: P
